Each entry below carries its recorded melting point.

Worked set:
# Molecule, melting point
data = [
    ("CS(=O)(=O)c1ccc(/C=C/c2nc3ccccc3n2-c2ccccn2)cc1", "152 to 154 °C"),
    ("CC(C)OCc1cnc2c(NC(=O)c3c(Cl)cccc3Cl)cccc2c1Cl", "117 to 118 °C"),
    ("Cc1nc(-c2ccc(C(F)(F)F)cc2)[nH]c1CN1CCN(C(c2ccccc2)c2ccccc2)CC1", "244 °C"),
    ("CCOC(OCC)N1C(=O)C2(CCCCC2)c2cc(-c3cc(F)cc(C#N)c3)ccc21", "146 °C"),
    ("Cc1oc(-c2ccco2)nc1/C=C/c1ccc(/C=C/C=C/C=O)cc1", "179 to 180 °C"),
    ("O=[N+]([O-])c1ccc(S(=O)(=O)c2ccc(Cl)cc2)nc1", "177 to 180 °C"),
    ("COCCOc1c(C)c(N2CCN(c3ccc(C)cc3)CC2)c(C)c2c1OC(C)(C)C2", "118 to 120 °C"),
    ("O=C(Nc1ccccc1)OCC1(COC(=O)Nc2ccccc2)CS(=O)(=O)c2ccccc2C1=O", "72 to 78 °C"),
    ("CCOc1ccc(OCc2ccc(OCc3nc(-c4ccccc4)oc3C)cc2)cc1CC(=O)OC", "82 to 83 °C"),
    ("Cc1nc2c(F)cccc2c(Cl)c1CCCl", "101 to 103 °C"),
]

// melting point value for `CCn1c2ccc(C)cc2c(=O)c2c1cnn2C` : > 300 °C

Value of melting point reported for the molecule O=C(OCC(O)CO)c1cc(F)ccc1Nc1ccnc2cc(C(F)(F)F)ccc12 (stereo unspecified) is 167 to 168 °C

// field: melting point; key: `CCOC(=O)[C@@H](NC(=O)[C@H](CC(C)C)NC(=O)OC(C)(C)C)[C@@H](C)O` ; value = 67 to 70 °C

molecule `NS(=O)(=O)c1cc(C(=O)O)cc(S)c1Cl` , melting point observed: 263 to 264 °C

Consider `Cc1ccc2c(c1)OCC(=O)N2` . Its measured melting point is 197 °C

// melting point lookup, molecule = `O=C(c1ccccc1)c1c(O)cc(-c2ccccc2)oc1=O` , result: 171 to 173 °C
